- Tested on: HCC-38
- protocol_details: relative cell number vs DMSO control (72 h) (% of DMSO); higher = less growth inhibition (more cells)
- assay_setup: sgRNA knockout: sgNT, 10000 nM
Reported relative cell number values for the following compounds.
Note: the reply should be a number with no unit written.

[[record]]
compound = "O=C1NC(=O)[C@@H](c2cn3c4c(cccc24)CCC3)[C@@H]1c1c[nH]c2ccccc12 [Tivantinib]"
target_or_test_system = "HCC-38"
recorded_measurement = 25.8

[[record]]
compound = "C[C@@H]1CN(CC(=O)Nc2ccc3c(c2)Cc2cccc(-c4cc(=O)cc(N5CCOCC5)o4)c2S3)C[C@H](C)O1"
target_or_test_system = "HCC-38"
recorded_measurement = 64.3

[[record]]
compound = "CC(C)OC(=O)C1=CN(C(=O)c2ccc(F)c(F)c2)CC(C)(C)c2c1[nH]c1ccccc21"
target_or_test_system = "HCC-38"
recorded_measurement = 90.8


Recorded relative cell number of "CC(C)C[C@@H](C=O)NC(=O)[C@H](CC(C)C)NC(=O)[C@H](CC(C)C)NC(=O)OCc1ccccc1" , please.
8.1

Similarly, "CCn1c(=O)c2c(nc(/C=C/c3ccc(OC)c(OC)c3)n2C)n(CC)c1=O" ?
106

Similarly, "O=C1NC(=O)/C(=C/c2ccc3nccc(-c4ccncc4)c3c2)S1" ?
42.4

Similarly, "CCN1CCN(c2ccc(Nc3cc(N(C)C(=O)Nc4c(Cl)c(OC)cc(OC)c4Cl)ncn3)cc2)CC1" ?
58.5

Similarly, CN1C(=O)C(Cc2c[nH]c3ccccc23)NC1=S (stereo not drawn) ?
91.2

----------
Reported relative cell number values for the following compounds.
- System: BT-20
- protocol_details: relative cell number vs DMSO control (72 h) (% of DMSO); higher = less growth inhibition (more cells)
- assay_setup: sgRNA knockout: sgNT, 1000 nM
Note: the reply should be a number with no unit written.

Some solved entries appear below for comparison.
[[record]]
compound = "O=C1NC(=O)/C(=C/c2ccc3nccc(-c4ccncc4)c3c2)S1"
recorded_measurement = 62.2

[[record]]
compound = "CC(C)(C(=O)NCC(F)(F)C(F)(F)F)C(=O)N[C@@H]1C(=O)Nc2ccccc2-c2ccccc21"
recorded_measurement = 107

[[record]]
compound = "CC(C)OC(=O)C1=CN(C(=O)c2ccc(F)c(F)c2)CC(C)(C)c2c1[nH]c1ccccc21"
recorded_measurement = 105

[[record]]
compound = "COC(=O)/C=C/C(=O)OC [DimethylFumarate]"
recorded_measurement = 86.1

[[record]]
compound = "C#Cc1cccc(Nc2ncnc3cc(OCCOC)c(OCCOC)cc23)c1 [Erlotinib]"
recorded_measurement = 81.9

[[record]]
compound = "CS(=O)(=O)N1CCN(Cc2cc3nc(-c4cccc5[nH]ncc45)nc(N4CCOCC4)c3s2)CC1 [GDC0941]"
recorded_measurement = 59.6


Recorded relative cell number of "CC(C)(C#N)c1ccc(N2C(=O)OCc3cnc4ccc(-c5cnc6ccccc6c5)cc4c32)cc1" , please.
81.3

----------
- Test system: BT-20
- protocol_details: relative cell number vs DMSO control (72 h) (% of DMSO); higher = less growth inhibition (more cells)
- assay_setup: sgRNA knockout: sgNT, 100 nM
measurement_label: relative cell number

[[record]]
compound = "Cc1c(Cn2c(C)nc3c(C(=O)O)cc(N4CCOCC4)cc32)cccc1C(F)(F)F"
recorded_measurement = 117


Recorded relative cell number of "Cc1onc(-c2ccccc2)c1-c1ccc(S(N)(=O)=O)cc1" , please.
107

Similarly, "C=CCc1cccc(/C=N/NC(=O)CN2CCN(Cc3ccccc3)CC2)c1O" ?
84.1

Similarly, "CNC(=O)c1cc(Oc2ccc(NC(=O)Nc3ccc(Cl)c(C(F)(F)F)c3)c(F)c2)ccn1" ?
94.9

Similarly, "O=c1cc(-c2cccc3c2Sc2ccccc2S3)oc(N2CCOCC2)c1" ?
116

Similarly, Cc1ncc([N+](=O)[O-])n1CC(O)CCl (stereo unspecified) ?
81.8

Similarly, "CN1CCN(c2ccc(C(=O)Nc3n[nH]c4ccc(Cc5cc(F)cc(F)c5)cc34)c(NC3CCOCC3)c2)CC1" ?
91.6

Similarly, Cc1ccc2c(c1)C(=O)C1(O)CCN(c3ccccc3)C1=N2 (stereo unspecified) ?
128

Similarly, "Cc1cc(N2CCOCC2)cc2[nH]c(-c3c(NC[C@@H](O)c4cccc(Cl)c4)cc[nH]c3=O)nc12" ?
88.3

Similarly, "CC[C@]1(O)C[C@H]2CN(CCc3c([nH]c4ccccc34)[C@@](C(=O)OC)(c3cc4c(cc3OC)N(C=O)[C@H]3[C@@](O)(C(=O)OC)[C@H](OC(C)=O)[C@]5(CC)C=CCN6CC[C@]43[C@@H]65)C2)C1" ?
22.5
